# Experimental Target: T1, human interleukin-23 receptor (IL23R) (human, UniProt Q5VWK5 24-355, limits assumed)
# T1 construct: also called human IL23R
# T1 sequence (looked up): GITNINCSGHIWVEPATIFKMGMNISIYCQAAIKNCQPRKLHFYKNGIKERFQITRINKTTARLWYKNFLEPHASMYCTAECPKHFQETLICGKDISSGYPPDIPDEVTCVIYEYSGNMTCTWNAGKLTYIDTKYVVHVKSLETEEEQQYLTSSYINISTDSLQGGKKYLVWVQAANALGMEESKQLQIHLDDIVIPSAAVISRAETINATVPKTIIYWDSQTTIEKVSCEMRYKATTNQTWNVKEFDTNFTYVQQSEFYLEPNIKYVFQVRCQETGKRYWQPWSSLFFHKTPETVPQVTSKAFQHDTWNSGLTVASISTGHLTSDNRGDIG
# Procedure Details: SPR, scFv
Reported Metric: kon (M⁻¹ s⁻¹)
Just the number please, in M⁻¹ s⁻¹, no unit attached.

# input Item under review: Vκ1/VH1A consensus (uncapped), human IL23R specific scFv (scFv, scFv VL-linker-VH, made in E. coli; Vκ framework IV (uncapped, full consensus); also called Vκ1VH1A uncapped) scFv: DIQMTQSPSSLSASVGDRVTITCQASENIYSFLAWYQQKPGKAPKLLIYSASKLAAGVPSRFSGSGSGTDFTLTISSLQPEDFATYYCQQTNRYSNPDIYNVFGQGTKVEIKRGGGGSGGGGSGGGGSGGGGSQVQLVQSGAEVKKPGSSVKVSCKASGIDFNSNYYMCWVRQAPGQGLEWMGCIYVGSHVNTYYANWAKGRVTITADESTSTAYMELSSLRSEDTAVYYCATSGSSVLYFKFWGQGTLVTVSS . Reported kon?
# output 6.42e+06

# input Item under review: Vκ3/VH4 consensus λ-capped, human IL23R specific scFv (scFv, scFv VL-linker-VH, made in E. coli; also called Vκ3VH4 capped) scFv: DIVLTQSPATLSLSPGERATLSCQASENIYSFLAWYQQKPGQAPRLLIYSASKLAAGVPARFSGSGSGTDFTLTISSLEPEDFAVYYCQQTNRYSNPDIYNVFGGGTKLTVLGGGGGSGGGGSGGGGSGGGGSQVQLQESGPGLVKPSETLSLTCTVSGIDFNSNYYMCWIRQPPGKGLEWIGCIYVGSHVNTYYANWAKGRVTISVDTSKNQFSLKLSSVTAADTAVYYCATSGSSVLYFKFWGQGTLVTVSS . Reported kon?
# output 2.35e+06

# input Item under review: Vκ2/VH4 consensus λ-capped, human IL23R specific scFv (scFv, scFv VL-linker-VH, made in E. coli; also called Vκ2VH4 capped) scFv: DIVMTQSPLSLPVTPGEPASISCQASENIYSFLAWYLQKPGQSPQLLIYSASKLAAGVPDRFSGSGSGTDFTLKISRVEAEDVGVYYCQQTNRYSNPDIYNVFGGGTKLTVLGGGGGSGGGGSGGGGSGGGGSQVQLQESGPGLVKPSETLSLTCTVSGIDFNSNYYMCWIRQPPGKGLEWIGCIYVGSHVNTYYANWAKGRVTISVDTSKNQFSLKLSSVTAADTAVYYCATSGSSVLYFKFWGQGTLVTVSS . Reported kon?
# output 2.33e+06

# input Item under review: Vκ1/VH5 consensus λ-capped, human IL23R specific scFv (scFv, scFv VL-linker-VH, made in E. coli; also called Vκ1VH5 capped) scFv: DIQMTQSPSSLSASVGDRVTITCQASENIYSFLAWYQQKPGKAPKLLIYSASKLAAGVPSRFSGSGSGTDFTLTISSLQPEDFATYYCQQTNRYSNPDIYNVFGGGTKLTVLGGGGGSGGGGSGGGGSGGGGSEVQLVQSGAEVKKPGESLKISCKGSGIDFNSNYYMCWVRQMPGKGLEWMGCIYVGSHVNTYYANWAKGQVTISADKSISTAYLQWSSLKASDTAMYYCATSGSSVLYFKFWGQGTLVTVSS . Reported kon?
# output 1.69e+06

# input Item under review: Vκ1/VH6 consensus λ-capped, human IL23R specific scFv (scFv, scFv VL-linker-VH, made in E. coli; also called Vκ1VH6 capped) scFv: DIQMTQSPSSLSASVGDRVTITCQASENIYSFLAWYQQKPGKAPKLLIYSASKLAAGVPSRFSGSGSGTDFTLTISSLQPEDFATYYCQQTNRYSNPDIYNVFGGGTKLTVLGGGGGSGGGGSGGGGSGGGGSQVQLQQSGPGLVKPSQTLSLTCAISGIDFNSNYYMCWIRQSPGRGLEWLGCIYVGSHVNTYYANWAKGRITINPDTSKNQFSLQLNSVTPEDTAVYYCATSGSSVLYFKFWGQGTLVTVSS . Reported kon?
# output 1.42e+06

# input Item under review: Vκ2/VH5 consensus λ-capped, human IL23R specific scFv (scFv, scFv VL-linker-VH, made in E. coli; also called Vκ2VH5 capped) scFv: DIVMTQSPLSLPVTPGEPASISCQASENIYSFLAWYLQKPGQSPQLLIYSASKLAAGVPDRFSGSGSGTDFTLKISRVEAEDVGVYYCQQTNRYSNPDIYNVFGGGTKLTVLGGGGGSGGGGSGGGGSGGGGSEVQLVQSGAEVKKPGESLKISCKGSGIDFNSNYYMCWVRQMPGKGLEWMGCIYVGSHVNTYYANWAKGQVTISADKSISTAYLQWSSLKASDTAMYYCATSGSSVLYFKFWGQGTLVTVSS . Reported kon?
# output 1.5e+06

# input Item under review: Vκ3/VH1A consensus (uncapped), human IL23R specific scFv (scFv, scFv VL-linker-VH, made in E. coli; Vκ framework IV (uncapped, full consensus); also called Vκ3VH1A uncapped) scFv: DIVLTQSPATLSLSPGERATLSCQASENIYSFLAWYQQKPGQAPRLLIYSASKLAAGVPARFSGSGSGTDFTLTISSLEPEDFAVYYCQQTNRYSNPDIYNVFGQGTKVEIKRGGGGSGGGGSGGGGSGGGGSQVQLVQSGAEVKKPGSSVKVSCKASGIDFNSNYYMCWVRQAPGQGLEWMGCIYVGSHVNTYYANWAKGRVTITADESTSTAYMELSSLRSEDTAVYYCATSGSSVLYFKFWGQGTLVTVSS . Reported kon?
# output 1.61e+06

# input Item under review: Vκ3/VH5 consensus (uncapped), human IL23R specific scFv (scFv, scFv VL-linker-VH, made in E. coli; Vκ framework IV (uncapped, full consensus); also called Vκ3VH5 uncapped) scFv: DIVLTQSPATLSLSPGERATLSCQASENIYSFLAWYQQKPGQAPRLLIYSASKLAAGVPARFSGSGSGTDFTLTISSLEPEDFAVYYCQQTNRYSNPDIYNVFGQGTKVEIKRGGGGSGGGGSGGGGSGGGGSEVQLVQSGAEVKKPGESLKISCKGSGIDFNSNYYMCWVRQMPGKGLEWMGCIYVGSHVNTYYANWAKGQVTISADKSISTAYLQWSSLKASDTAMYYCATSGSSVLYFKFWGQGTLVTVSS . Reported kon?
# output 1.72e+06

# input Item under review: Vκ2/VH2 consensus λ-capped, human IL23R specific scFv (scFv, scFv VL-linker-VH, made in E. coli; also called Vκ2VH2 capped) scFv: DIVMTQSPLSLPVTPGEPASISCQASENIYSFLAWYLQKPGQSPQLLIYSASKLAAGVPDRFSGSGSGTDFTLKISRVEAEDVGVYYCQQTNRYSNPDIYNVFGGGTKLTVLGGGGGSGGGGSGGGGSGGGGSQVQLKESGPALVKPTQTLTLTCTFSGIDFNSNYYMCWIRQPPGKALEWLACIYVGSHVNTYYANWAKGRLTISKDTSKNQVVLTMTNMDPVDTATYYCATSGSSVLYFKFWGQGTLVTVSS . Reported kon?
# output 1.38e+06
